B1: Azoarcus group I ribozyme (parent)
chain: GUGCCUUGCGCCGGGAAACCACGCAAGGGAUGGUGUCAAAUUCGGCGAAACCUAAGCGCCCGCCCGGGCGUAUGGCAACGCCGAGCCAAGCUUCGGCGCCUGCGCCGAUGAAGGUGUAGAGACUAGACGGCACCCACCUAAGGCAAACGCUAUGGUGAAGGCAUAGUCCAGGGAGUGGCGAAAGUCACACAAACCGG

Variants of: B1
EXPERIMENT: reverse-splicing fitness (ratio to wild type); higher = more active; in vitro selection; Mg2+ level not given
The label depends only on reverse-splicing fitness: class 1 if it is at least 0.01, class 0 if it is smaller.

INSERT INTO assay_data (variant_name, class) VALUES
  ('C82U A111C A120G A145U C150U U176C', 'class 1'),
  ('A111G A120C A145C C150G C169U', 'class 1'),
  ('C82U A111C C150A C169A U176G', 'class 0'),
  ('C82U A120G A145G C150G C169A U176A', 'class 1'),
  ('C82G A111U A120G A145G C150U C169A', 'class 1');

Prompt line: Please tell me: is the variant C82U A120C A145U U176C at or over 0.01 in terms of reverse-splicing fitness?
Response line: class 1

Prompt line: Please tell me: is the variant C82U A111C A120G A145C C150G C169U at or over 0.01 in terms of reverse-splicing fitness?
Response line: class 0

Prompt line: Please tell me: is the variant C82G A111G A120C C150A C169U U176A at or over 0.01 in terms of reverse-splicing fitness?
Response line: class 1

Prompt line: Please tell me: is the variant A111G A120U A145C C150U C169A at or over 0.01 in terms of reverse-splicing fitness?
Response line: class 0

Prompt line: Please tell me: is the variant C82U A111C A120G A145U C150G C169G U176C at or over 0.01 in terms of reverse-splicing fitness?
Response line: class 0
